Reference source for all entries: patent US20150284349A1

Assay: Maximum tolerated dose study
Assay type: in vivo, male BALB/c mice
Details: male, BALB/c, mouse, in vivo, Group 2; read-out: MTD

Compound: CN1C(=O)[C@]2(Cc3ccc(CCc4ccc(C[C@@]56SS[C@@](CO)(C(=O)N5C)N(C)C6=O)cc4)cc3)SS[C@@]1(CO)C(=O)N2C (racemic)
MTD at 14 days: 19 mg/kg

---

Test: Maximum tolerated dose study
Format: in vivo, male BALB/c mice
Details: male, BALB/c, mouse, in vivo, Group 3; read-out: MTD
Description: Three groups of three animals (male BALB/c mice) were administered increasing doses of compound 1 every other day for 14 days and the animals checked daily for the signs of moribundity, mortality, vocalization, and gross weight or body shape abnormalities. […] An average MTD of 21.1 mg/kg for the three groups combined was determined from this study.

Molecule: CN1C(=O)[C@]2(Cc3ccc(CCc4ccc(C[C@@]56SS[C@@](CO)(C(=O)N5C)N(C)C6=O)cc4)cc3)SS[C@@]1(CO)C(=O)N2C (racemic)
MTD at 14 days, mg/kg: 19

---

Assay: Log D7.4 measurement
Format: physicochemical
Conditions: pH 7.4; standard experimental conditions

Compound: CN1C(=O)[C@]2(Cc3ccc(CCc4ccc(C[C@@]56SS[C@@](CO)(C(=O)N5C)N(C)C6=O)cc4)cc3)SS[C@@]1(CO)C(=O)N2C (racemic)
logD: 2.69

---

Test: Oral pharmacokinetic study, bioavailability
Assay type: in vivo
Settings: rat, plasma, 5 mg/kg b.w., Male SD rats

Compound: CN1C(=O)[C@]2(Cc3ccc(CCc4ccc(C[C@@]56SS[C@@](CO)(C(=O)N5C)N(C)C6=O)cc4)cc3)SS[C@@]1(CO)C(=O)N2C (racemic)
Unit Info: %
bioavailability: 28

---

Test: Maximum tolerated dose study
Format: in vivo, male BALB/c mice
Details: male, BALB/c, mouse, in vivo, Group 1; read-out: MTD
Value Type: MTD at 14 days (mg/kg)

Compound: CN1C(=O)[C@]2(Cc3ccc(CCc4ccc(C[C@@]56SS[C@@](CO)(C(=O)N5C)N(C)C6=O)cc4)cc3)SS[C@@]1(CO)C(=O)N2C (racemic)
Unit Info: mg/kg
Measured Value: 25.3

---

Test system: multiple CYP
Assay: Standard CYP inhibition assays
Type: in vitro ADME
Conditions: each assay
pIC50: −log10 of the molar value.
Value Type: pIC50

Compound: CN1C(=O)[C@]2(Cc3ccc(CCc4ccc(C[C@@]56SS[C@@](CO)(C(=O)N5C)N(C)C6=O)cc4)cc3)SS[C@@]1(CO)C(=O)N2C (racemic)
Tgt: multiple CYP
Measured Value: < 5.30
